# Target under test: E. coli DNA gyrase (Escherichia coli (strain K12), UniProt P0AES4+P0AES6)
# Assay method text: E. coli DNA gyrase ATPase assay
# Type: biochemical
Property: pKi
Give bare numbers, as −log10 of the molar value.

Problem: What pKi value was documented for this molecule, Cc1c(CCC(=O)O)c(=O)oc2c(C)c3occ(-c4ccc(Br)cc4)c3cc12 [Compound 48] ?
Solution: 6.82

====

# Target under test: E. coli DNA gyrase (Escherichia coli (strain K12), UniProt P0AES4+P0AES6)
# Assay method text: Agarose gel-based DNA gyrase inhibition assay
# Format: biochemical
# Condition: 50 µM of compounds
# Protocol: 100 ng of DNA gyrase was used to supercoil the rx pAB1 in the presence of different concentrations of a gyrase inhibitor. […] Samples were analyzed by electrophoresis in 1% w/v agarose gels followed by ethidium bromide staining and photographed under UV light.
Property: inhibition of E. coli DNA gyrase activities

Worked cases, answers included:
| Compound | Result value |
| --- | --- |
| Cc1ccc([S+]([O-])c2ccc([N+](=O)[O-])c3nonc23)cc1 (stereo not drawn) | completely inhibited |
| Cc1onc(-c2ccccc2)c1C(=O)Nc1sccc1C#N | potently inhibited |
| Cc1cc(/C=C2/SC(=S)N(c3cccc(Cl)c3)C2=O)c(C)n1-c1cccnc1 | completely inhibited |
| Cc1coc2cc3oc(=O)c(CCC(=O)O)c(C)c3cc12 | potently inhibited |
| N#Cc1sc2nc(-c3ccccc3)cc(-c3ccco3)c2c1N | potently inhibited |
| N=C(N)Nc1nc(-c2ccccc2)c2cc(Cl)ccc2n1 | completely inhibited |
| O=[N+]([O-])c1cc(/C=N/Nc2nc3ccccc3[nH]2)c(O)cc1O | completely inhibited |
| O=C1N/C(=N\c2ccc3ccccc3c2)S/C1=C/c1ccco1 | completely inhibited |
| O=C1NC(=S)S/C1=C/c1cc(Cl)cc(Cl)c1O | inhibited |
| O=C1C=C(NCCc2cc(Br)c(O)c(Br)c2)C(=O)c2ncccc21 | inhibited |

Value sought for every listed compound: inhibition of E. coli DNA gyrase activities.
1. COC1C(C)OC(OC2CC(C)(O)Cc3cc4c(c(O)c32)C(=O)c2c(O)cc3c(c2C4=O)OC2OC3(C)C(O)C(N(C)C)C2O)C(OC)C1(C)OC (stereo not drawn)
2. CCc1ccc(S(=O)(=O)/N=C2/C=C(Nc3ccc(C(=O)O)cc3)C(=O)c3ccccc32)cc1
3. COc1cc(C(=O)Nc2scc(-c3ccc(Br)cc3)c2C(=O)O)cc(OC)c1OC
4. CCN(CC)c1ccc(C=C2SC(=S)NC2=O)cc1
5. Cc1cc(/C=C2\SC(=S)N=C2O)c(C)n1-c1ccccc1
6. Cc1cc(C)c2c(c1)C(=NNc1ccc(C(=O)O)cc1)C(O)=N2
7. Cc1n[nH]c(SC(Cc2ccc(-c3cccc(Cl)c3)o2)C(=O)O)n1 (stereo not drawn)

Solution:
1: completely inhibited; 2: completely inhibited; 3: completely inhibited; 4: completely inhibited; 5: completely inhibited; 6: completely inhibited; 7: completely inhibited

====

# Tested on: E. coli (ATCC 25922)
# Assay method text: Minimum inhibitory concentration, broth microdilution
# Condition: Escherichia coli, ATCC25922, read-out: MIC E coli ATCC 25922, Table 9
Property: MIC

Worked cases, answers included:
| Compound | MIC |
| --- | --- |
| O=C(Oc1ccccc1)c1cc(O)c(O)c(O)c1 [Phenyl gallate, phenyl gallate] | > 200 µM |
| CO[C@@H]1[C@@H](OC(N)=O)[C@@H](O)[C@H](Oc2ccc3c(O)c(NC(=O)c4ccc(O)c(CC=C(C)C)c4)c(=O)oc3c2C)OC1(C)C [Novobiocin, novobiocin, reference compound] | 158 µM |
| CCCCOC(=O)c1cc(O)c(O)c(O)c1 [Butyl gallate, butyl gallate] | > 200 µM |
| CCCCCCCCCCCCOC(=O)c1cc(O)c(O)c(O)c1 [Dodecyl gallate, dodecyl gallate] | > 200 µM |
| O=C(O)c1cc(O)c(O)c(OC(=O)c2cc(O)c(O)c(O)c2)c1 [Digallic acid, digallic acid] | > 200 µM |

Please turn your attention to the following entry.
Problem: What MIC value was documented for this compound, CCCCCCCCOC(=O)c1cc(O)c(O)c(O)c1 [Octyl gallate, octyl gallate] ?
Solution: > 200 µM

====

# Target under test: E. coli DNA gyrase (Escherichia coli (strain K12), UniProt P0AES4+P0AES6)
# Assay method text: Agarose gel-based DNA gyrase inhibition assay
# Assay type: biochemical
# Condition: 50 µM of compounds
Property: inhibition of E. coli DNA gyrase activities

Worked cases, answers included:
| Molecule | Target under test | Result value |
| --- | --- | --- |
| Cc1cccc2c1N=C(O)C2/N=N/c1ccc(C(=O)O)cc1 (centres unmarked) | E. coli DNA gyrase (Escherichia coli (strain K12), UniProt P0AES4+P0AES6) | completely inhibited |
| CCOC(=O)[C@@H]1Nc2ccc(C(=O)O)cc2[C@@H]2C=CC[C@H]12 | E. coli DNA gyrase (Escherichia coli (strain K12), UniProt P0AES4+P0AES6) | potently inhibited |
| COc1cc(/C=N/N=c2\[nH]c3ccccc3s2)cc([N+](=O)[O-])c1O | E. coli DNA gyrase (Escherichia coli (strain K12), UniProt P0AES4+P0AES6) | completely inhibited |
| Cc1c(CCC(=O)O)c(=O)oc2c(C)c3occ(-c4ccc(Br)cc4)c3cc12 | E. coli DNA gyrase (Escherichia coli (strain K12), UniProt P0AES4+P0AES6) | completely inhibited |
| N#CC(C#N)=C1C=CC=CN1C(=Cc1ccccc1)C(=O)c1cccs1 | E. coli DNA gyrase (Escherichia coli (strain K12), UniProt P0AES4+P0AES6) | potently inhibited |
| C[n+]1c(-c2ccc(C=NNC(=O)c3ccc(C(=O)NN=Cc4ccc(-c5cn6ccccc6[n+]5C)cc4)cc3)cc2)cn2ccccc21 | E. coli DNA gyrase (Escherichia coli (strain K12), UniProt P0AES4+P0AES6) | completely inhibited |
| N#C/C(=C\c1coc2ccc(O)cc2c1=O)C(=O)/N=c1\[nH]c2ccccc2s1 | E. coli DNA gyrase (Escherichia coli (strain K12), UniProt P0AES4+P0AES6) | completely inhibited |
| O=C1N=C(O)/C(=C/c2ccc(N3CCCC3)cc2)C(=O)N1Cc1ccc(F)cc1 | E. coli DNA gyrase (Escherichia coli (strain K12), UniProt P0AES4+P0AES6) | potently inhibited |
| Cc1cc(C)c2c(c1)C(=NNc1ccc(C)c(Cl)c1)C(O)=N2 | E. coli DNA gyrase (Escherichia coli (strain K12), UniProt P0AES4+P0AES6) | completely inhibited |
| CN1C(=O)C(=Cc2ccc(Sc3ccccc3)o2)C(=O)N(C)C1=S | E. coli DNA gyrase (Escherichia coli (strain K12), UniProt P0AES4+P0AES6) | completely inhibited |

Value sought for every listed molecule: inhibition of E. coli DNA gyrase activities.
1. Cc1cc2c3c(c1)C1CC=CC1C(C(=O)O)N3CC1CC=CC21 (centres unmarked)
2. Cc1c(CCC(=O)O)c(=O)oc2c(C)c3occ(-c4ccc(-c5ccccc5)cc4)c3cc12
3. O=C(O)c1ccc(NN=C2c3cc(Br)ccc3NC2O)cc1 (centres unmarked)
4. O=C(O)c1ccc(NN=CC=Cc2ccc([N+](=O)[O-])o2)cc1
5. Cc1c(CCC(=O)O)c(=O)oc2c(C)c3occ(-c4ccc(Cl)cc4)c3cc12
6. CSc1nc(SCC(=O)O)c2sc3nc(-c4ccccc4)c4c(c3c2n1)CCC4

Solution:
1: potently inhibited; 2: completely inhibited; 3: completely inhibited; 4: potently inhibited; 5: completely inhibited; 6: completely inhibited

====

# Target under test: E. coli DNA gyrase (Escherichia coli (strain K12), UniProt P0AES4+P0AES6)
# Assay method text: Agarose gel-based DNA gyrase inhibition assay
# Format: biochemical
# Condition: 50 µM of compounds
Property: inhibition of E. coli DNA gyrase activities

Worked cases, answers included:
| Molecule | Result value |
| --- | --- |
| N#CC(=Cc1ccc(C(=O)O)cc1)c1nc2sc3c(c2c(=O)[nH]1)CCCC3 [Compound 12] | completely inhibited |
| c1ccc(Nc2nc(N3CCCC3)c3ccccc3n2)cc1 [Compound 102] | completely inhibited |
| Cc1ccc(NC2=NC(=O)/C(=C/C=C/c3ccco3)S2)cc1 [Compound 24] | completely inhibited |
| O=C(O)CCN1C(=O)/C(=C/c2ccc(-c3nc4ccccc4s3)o2)SC1=S [Compound 27] | completely inhibited |

Value sought for every listed molecule: inhibition of E. coli DNA gyrase activities.
1. CC(C)(CS(=O)(=O)[O-])NC(=O)CC[N+](C)(C)CCO [Compound 42]
2. COc1cccc(-n2c(C)cc(/C=C3/C(=N)N4C(=NC3=O)SN=C4[S+](C)[O-])c2C)c1 (stereo not drawn) [Compound 105]
3. O=C(O)C(c1ccccc1)N1C(=O)/C(=C\c2ccc(-c3cccc(Cl)c3)o2)SC1=S (stereo not drawn) [Compound 176]

Solution:
1. completely inhibited
2. completely inhibited
3. completely inhibited
